Below, each entry is listed with its recorded pIC50.
# experimental target: Phospholipase A and acyltransferase 3 (Homo sapiens, UniProt P53816)
# Sequence (P53816 whole entry): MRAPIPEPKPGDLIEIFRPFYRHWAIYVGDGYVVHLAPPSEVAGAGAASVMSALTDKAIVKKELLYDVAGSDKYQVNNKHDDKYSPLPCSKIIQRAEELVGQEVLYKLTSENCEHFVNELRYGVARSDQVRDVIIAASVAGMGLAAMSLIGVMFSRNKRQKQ
# measurement notes: Inhibition of full-length C-terminal FLAG-tagged human PLAAT3 expressed in HEK293T cell lysate preincubated for 30 mins followed by MB064 addition and measured after 20 mins by SDS-PAGE based ABPP analysis
pIC50 field: float, defined as -log10 of concentration (mol/L).

Previously resolved entries follow.
INSERT INTO results (structure_string, experimental_target, readout_number) VALUES
  ('Cc1ccc(CCC(=O)C(=O)NCCc2ccccc2)cc1', 'Phospholipase A and acyltransferase 3 (Homo sapiens, UniProt P53816)', 5.70),
  ('O=C(CCc1ccc(F)cc1)C(=O)NCCc1ccccc1', 'Phospholipase A and acyltransferase 3 (Homo sapiens, UniProt P53816)', 5.30),
  ('O=C(CCCc1ccccc1)C(=O)NCCc1ccccc1Cl', 'Phospholipase A and acyltransferase 3 (Homo sapiens, UniProt P53816)', 5.90),
  ('O=C(CCCc1ccccc1)C(=O)NCCc1ccc(Oc2ncccn2)cc1', 'Phospholipase A and acyltransferase 3 (Homo sapiens, UniProt P53816)', 5.70),
  ('O=C(CCCc1ccccc1)C(=O)NCCc1ccc(O)cc1', 'Phospholipase A and acyltransferase 3 (Homo sapiens, UniProt P53816)', 5.80),
  ('O=C(/C=C/c1cccc(-c2ccccc2)c1)C(=O)NCCc1ccccc1', 'Phospholipase A and acyltransferase 3 (Homo sapiens, UniProt P53816)', 5.50),
  ('O=C(CCc1cccc(Cl)c1)C(=O)NCCc1ccccc1', 'Phospholipase A and acyltransferase 3 (Homo sapiens, UniProt P53816)', 5.80),
  ('O=C(CCc1ccc(C(F)(F)F)cc1)C(=O)NCCc1ccccc1', 'Phospholipase A and acyltransferase 3 (Homo sapiens, UniProt P53816)', 5.10);

// next entry
Prompt: Check Phospholipase A and acyltransferase 3 (Homo sapiens, UniProt P53816) data and give pIC50 for O=C(CCCc1ccccc1)C(=O)NCCc1ccc(Br)cc1 .
Response: 6.80

----------
# experimental target: Phospholipase A and acyltransferase 3 (Homo sapiens, UniProt P53816)
# Sequence (P53816 whole entry): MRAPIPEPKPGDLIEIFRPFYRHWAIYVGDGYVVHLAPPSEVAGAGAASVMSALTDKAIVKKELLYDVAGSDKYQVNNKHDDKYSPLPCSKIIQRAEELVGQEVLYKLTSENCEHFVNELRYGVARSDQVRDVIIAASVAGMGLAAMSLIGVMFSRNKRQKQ
# measurement notes: Inhibition of full-length C-terminal FLAG-tagged human PLAAT3 expressed in HEK293T cell lysate preincubated for 30 mins followed by MB064 addition and measured after 20 mins by SDS-PAGE based ABPP analysis
# Assay type: cell-free, HEK-293T
pIC50: −log10 of the molar value.
Kindly return rule met if reported pIC50 is no lower than 6; return rule not met if it is lower.

INSERT INTO measurements (compound, assigned_class) VALUES
  ('CCN(CCc1ccccc1)C(=O)C(=O)CCc1ccc(Cl)cc1', 'rule not met'),
  ('O=C(CCCc1ccccc1)C(=O)NCCc1ccc(Oc2ccnc(Cl)n2)cc1', 'rule met'),
  ('O=C(CCc1ccccc1)C(F)(F)C(=O)NCCc1ccccc1', 'rule not met');

Prompt: API: above_or_equal(metric=pIC50, cutoff=6) for item O=C(CCc1ccc(Cl)cc1)C(=O)N1CCCC1
Response: rule not met

Prompt: API: above_or_equal(metric=pIC50, cutoff=6) for item CN(C)C(=O)C(=O)CCc1ccc(Cl)cc1
Response: rule not met
